Molecular target: T1, UBXD1-PUB (150–264) Y194F (UniProt Q9BZV1 150-264, Y194F)
T1 construct: UBXD1 PUB domain construct, residues 150-264, point mutant; source: E. coli Rosetta2, purified (Ni-NTA, thrombin cleavage of the tag, SEC); not shown: His6, N-terminal, cleaved
T1 sequence (looked up): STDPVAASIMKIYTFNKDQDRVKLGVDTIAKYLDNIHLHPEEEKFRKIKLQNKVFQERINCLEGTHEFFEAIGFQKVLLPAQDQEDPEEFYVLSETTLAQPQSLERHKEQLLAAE
Experiment: fluorescence polarisation; fluorescence anisotropy; PUB constructs titrated to 100 nM 5,6-FAM labeled p97-C10 peptide; 50 mM NaKPi pH 6.5, 25 °C; triplicate; one-site quadratic fit
Conditions: both partners purified
No end group written: not given here.
Test Readout: pKd
Units for pKd: none; it is -log10 of a concentration expressed in mol/L.

Exam item: What value of pKd has been reported for the following binder? TEDNDDDLYG (also: 5,6-FAM label, position not given here, source: synthetic peptide, bought: Caslo ApS (Denmark)) [5,6-FAM-labeled p97-C10 peptide]
Marked response: 3.85
